- Tested on: UACC-257 melanoma
- assayRemarks: NCI tumour cell line growth inhibition, 48 h
Record Criterion met whenever TGI is at 30 µM or higher; record Criterion not met when lower.

Previously resolved entries follow.
>  <compound>
C=C1C(=O)O[C@@H]2C=C(C)C3=CC(=O)[C@](C)(C[C@H](OC(=O)/C(C)=C\C)[C@@H]12)O3

>  <systemUnderTest>
UACC-257 melanoma

>  <groupLabel>
Criterion not met

$$$$
>  <compound>
CN1C(=O)N[C@H]2[C@@H]3NC(=O)c4ccc(Br)n4[C@@H]3C[C@]21O

>  <systemUnderTest>
UACC-257 melanoma

>  <groupLabel>
Criterion not met

$$$$

Prompt line: Textbook exercise: given the entry `CCOC(=O)C(C)(C)Oc1ccc(/C=C/C(=O)c2ccc(Cl)cc2)cc1` , state whether its TGI is greater than or equal to 30 µM.
Response line: Criterion met

Prompt line: Textbook exercise: given the entry CC1C2(C)OC(=N)C(C#N)(C(c3cccc([N+](=O)[O-])c3)O2)C1(C#N)C#N (stereo unspecified) , state whether its TGI is greater than or equal to 30 µM.
Response line: Criterion met

Prompt line: Textbook exercise: given the entry Cc1ccc2nc(-c3ccc(N4C(=O)C(Cl)C4c4ccc(Cl)cc4)cc3)sc2c1 (stereo unspecified) , state whether its TGI is greater than or equal to 30 µM.
Response line: Criterion met

Prompt line: Textbook exercise: given the entry `CC1=NN(c2nc(N)nc(CC#N)n2)C(C)(C)C1` , state whether its TGI is greater than or equal to 30 µM.
Response line: Criterion met

Prompt line: Textbook exercise: given the entry `O=Cc1cccc2c1Oc1c(cccc1C(=O)O)S2` , state whether its TGI is greater than or equal to 30 µM.
Response line: Criterion met

Prompt line: Textbook exercise: given the entry CCCCON1C[C@H](OC(C)=O)C(OC(C)=O)[C@H](OC(C)=O)C1 (stereo partly specified) , state whether its TGI is greater than or equal to 30 µM.
Response line: Criterion met

Prompt line: Textbook exercise: given the entry Nc1ccn(C2OC(COC(=O)C34CC5CC(CC(C5)C3)C4)C(O)C2O)c(=O)n1 (stereo unspecified) , state whether its TGI is greater than or equal to 30 µM.
Response line: Criterion met

Prompt line: Textbook exercise: given the entry `Cn1c(=O)c2nc(-c3ccc(Cl)cc3)oc2n(C)c1=O` , state whether its TGI is greater than or equal to 30 µM.
Response line: Criterion met

----------
Record form. Attribute: TGI. Fill in for each entry.
- System: SF-539 CNS
- assayRemarks: NCI tumour cell line growth inhibition, 48 h

The examples below pair each entry with its known result.
>  <compound>
CC(C)C1=CC23CCC4C(C)(C(=O)O)CCCC4(C)C2CC1C1C(=O)N(c2ccccc2)C(=O)C13 (centres undefined)

>  <systemUnderTest>
SF-539 CNS

>  <TGI>
> 100 µM

$$$$
>  <compound>
CN/N=C(\C)C(CN(C)C)C(c1ccccc1)c1c(O)c2ccccc2oc1=O (centres undefined)

>  <systemUnderTest>
SF-539 CNS

>  <TGI>
> 100 µM

$$$$
>  <compound>
Cn1c(=O)c2nc(-c3ccc(Cl)cc3)oc2n(C)c1=O

>  <systemUnderTest>
SF-539 CNS

>  <TGI>
> 100 µM

$$$$
>  <compound>
C/C=C/C1OC(O)(C(C)C(O)[C@H](C)C2OC(=O)/C(OC)=C/C(C)=C/[C@@H](C)[C@@H](O)[C@@H](C)C(O)C(C)C/C(C)=C/C=C/C2OC)C[C@@H](OC2CC(O)C(OC(N)=O)C(C)O2)C1C (some centres undefined)

>  <systemUnderTest>
SF-539 CNS

>  <TGI>
< 0.01 µM

$$$$
>  <compound>
CCOC(=O)c1sc2[n+](c1C)C(=O)/C(=C/c1ccc([N+](=O)[O-])cc1)S2

>  <systemUnderTest>
SF-539 CNS

>  <TGI>
54.7 µM

$$$$
>  <compound>
CC/C=C(\C(=C/CC)[N+](=O)[O-])[N+](=O)[O-]

>  <systemUnderTest>
SF-539 CNS

>  <TGI>
40.3 µM

$$$$
>  <compound>
CC(=O)NC1=C[C@@H]([C@H]2COC(C)(C)O2)OC1=O

>  <systemUnderTest>
SF-539 CNS

>  <TGI>
> 100 µM

$$$$
>  <compound>
Nc1nc(N)c2cc(NCc3ccc(Cl)c(Cl)c3)ccc2n1

>  <systemUnderTest>
SF-539 CNS

>  <TGI>
3.04 µM

$$$$
>  <compound>
Nc1ccc(C(=O)c2cn(CCN3CCOCC3)c3ccccc23)c2ccccc12

>  <systemUnderTest>
SF-539 CNS

>  <TGI>
> 100 µM

$$$$
>  <compound>
C=C1C(=O)O[C@@H]2C=C(C)C3=CC(=O)[C@](C)(C[C@H](OC(=O)/C(C)=C\C)[C@@H]12)O3

>  <systemUnderTest>
SF-539 CNS

>  <TGI>
6.09 µM

$$$$

The following compounds each have a reported value; give each one's TGI.
1. O=C(O)C(Cl)(c1ccccc1)c1ccccc1
2. Cc1cc(N(CCC#N)S(C)(=O)=O)ccc1C=Nc1ccc(C(=O)NN2C(=O)/C(=C/c3ccc(N(CCC#N)CCC#N)cc3C)N=C2c2cc([N+](=O)[O-])ccc2Cl)cc1
3. O=C(O)/C(Cc1ccc([N+](=O)[O-])cc1)=N\O
4. CCOc1cccc2ccc[n+](CC)c12
5. COC(=O)c1cnc(Cl)cn1

Response line:
1: > 100 µM; 2: > 100 µM; 3: > 100 µM; 4: > 100 µM; 5: > 100 µM

----------
Record form. Attribute: TGI. Fill in for each entry.
- System: RPMI-8226 leukemia
- assayRemarks: NCI tumour cell line growth inhibition, 48 h

>  <molecule>
NNC(=O)c1nnn(CCc2ccccc2)c1C(=O)NN

>  <TGI>
> 100 µM

$$$$

The following molecules each have a reported value; give each one's TGI.
1. C=CCO[C@]1(CC=C)C(=O)C(=O)OC1C1COC(C)(C)O1 (stereo not given in full)
2. O=C(N/N=C(/COc1ccc([N+](=O)[O-])cc1)N=Cc1ccncc1)c1ccncc1
3. O=c1c2cccc3cccc(c4n1CCN=4)c32
4. CN(CCNCc1cn(C)c2c1ccc1ccccc12)CCNCc1cn(C)c2c1ccc1ccccc12

Response line:
1: 73 µM; 2: > 100 µM; 3: > 100 µM; 4: > 100 µM

----------
- System: SNB-75 CNS
- assayRemarks: NCI tumour cell line growth inhibition, 48 h
Record form. Attribute: TGI. Fill in for each entry.
Answers are plain numbers, in µM.

>  <compound>
C=C1CCC2C(C)(COC(=O)CC)C(OC(=O)CC)CCC2(C)C1C/C=C1/C(=O)OCC1OC(=O)CC (stereo not given)

>  <unitText>
µM

>  <TGI>
3.68

$$$$

Prompt line: What does the data say about its TGI? Entry: Cc1ccc(C)c(C2NC(=O)c3ccccc3N2)c1 (stereo not given)
Response line: 15.2

----------
- Tested on: EKVX NSCLC
- assayRemarks: NCI tumour cell line growth inhibition, 48 h
Record form. Attribute: TGI. Fill in for each entry.

>  <molecule>
Cc1c(C(=O)/C=C/c2ccc(N(C)C)cc2)c(=O)n(-c2ccccc2)n1C

>  <TGI>
> 100 µM

$$$$
>  <molecule>
O=CC12C3CCC1C2C(=O)C3 (stereo not given)

>  <TGI>
> 100 µM

$$$$
>  <molecule>
C[N+](C)(C)CC(=O)N/N=C(\C(=O)NC1=C(Cl)C(=O)c2ccccc2C1=O)C(C#N)c1csc(-c2ccc([N+](=O)[O-])cc2)n1 (stereo not given)

>  <TGI>
> 100 µM

$$$$

The following molecules each have a reported value; give each one's TGI.
1. CCOC(=O)CC1C(COC(=O)NC)OC(n2cnc3c(NC(=O)Nc4ccccc4)ncnc32)C1O[Si](C)(C)C(C)(C)C (stereo not given)
2. COc1ccc(CN=C(N)N)c2ccccc12
3. CC/C=C(\C(=C/CC)[N+](=O)[O-])[N+](=O)[O-]
4. CCOC(=O)C(Cc1cccn1C(=O)OC(C)(C)C)[N+](=O)[O-] (stereo not given)
5. Clc1ccc(C2Nc3ccccc3C3=NCCN32)cc1 (stereo not given)
6. O=[N+]([O-])C1Cc2ccccc2OC1c1ccccc1 (stereo not given)
7. O=C1c2cc(Cl)ccc2NC(=NCCCl)C2CSCN12 (stereo not given)

Response line:
1: > 100 µM; 2: > 100 µM; 3: 29.8 µM; 4: > 100 µM; 5: 93.7 µM; 6: > 100 µM; 7: > 100 µM

----------
Record form. Attribute: TGI. Fill in for each entry.
- Test system: DMS 273 small cell lung
- assayRemarks: NCI tumour cell line growth inhibition, 48 h

>  <compound>
CC(C)(C)C1CCC2c3c([nH]c4ccccc34)C3C(=O)N(c4ccccc4)C(=O)C3C2C1 (stereo not given)

>  <systemUnderTest>
DMS 273 small cell lung

>  <recordedEndpoint>
TGI

>  <testResult>
15 µM

$$$$
>  <compound>
c1csc(C[N+]23CN4CN(CN(C4)C2)C3)c1

>  <systemUnderTest>
DMS 273 small cell lung

>  <recordedEndpoint>
TGI

>  <testResult>
41.8 µM

$$$$
>  <compound>
N#C/C(=C1\SC(N=Nc2ccccc2)C(=O)N1c1ccccc1)c1nc2ccccc2[nH]1 (stereo not given)

>  <systemUnderTest>
DMS 273 small cell lung

>  <recordedEndpoint>
TGI

>  <testResult>
> 100 µM

$$$$
>  <compound>
CC(C)(C)C(=O)OC12/C(=N/O)CCCCCC1c1ccccc12 (stereo not given)

>  <systemUnderTest>
DMS 273 small cell lung

>  <recordedEndpoint>
TGI

>  <testResult>
34.3 µM

$$$$

Let's switch to this compound now.
Prompt line: What does the data say about its TGI? Entry: COC1=CC(=O)C2C(C1=O)C(c1ccccc1)[C@H]2C (stereo not given in full)
Response line: > 100 µM
